- Test system: SNU-398
- assay-info: Induction of apoptosis in human SNU398 cells assessed as caspase activation after 24 hrs
- Assay type: functional, cell-based
- condition-details: SNU-398, 24 h
Each entry below carries its reported EC50.
readout-type: EC50 (nM)

> print(dat)
                                      smiles  measurement.target  comparison.operator  observed.value
 1  CC(=O)c1cc(C(=O)c2ccc(C)cc2)n2c1ccc1ccccc12             SNU-398                    >           10000
 2  N#Cc1cc(C(=O)c2ccc(F)cc2)n2c1ccc1ccccc12             SNU-398                    =             880
 3     N#Cc1cc(C(=O)c2ccccn2)n2c1ccc1ccccc12             SNU-398                    =            1600
 4  CCN(CC)c1ccc(C(=O)c2cc(C#N)c3ccc4ccccc4n23)cc1             SNU-398                    =             260
 5  N#Cc1cc(C(=O)c2ccc(Cl)cc2)n2c1ccc1ccccc12             SNU-398                    >           10000
 6  N#Cc1cc(C(=O)c2ccc(N3CCNCC3)cc2)n2c1ccc1ccccc12             SNU-398                    >           10000
 7  N#Cc1cc(C(=O)c2ccc(-n3ccnc3)cc2)n2c1ccc1ccccc12             SNU-398                    =              39
 8  N#Cc1cc(C(=O)c2ccc(N)cc2)n2c1ccc1ccccc12             SNU-398                    =             200
 9  Cc1ccc(C(=O)c2cc(C#N)c3ccc4ccccc4n23)cc1             SNU-398                    =            2700
10  N#Cc1cc(C(=O)c2ccc(N3CCCC3)cc2)n2c1ccc1ccccc12             SNU-398                    =             510

* * *

Each entry below carries its reported EC50.
- Test system: SNU-398
- assay-info: Induction of apoptosis in human SNU398 cells assessed as caspase activation after 24 hrs
- Assay type: functional, cell-based
- condition-details: SNU-398, 24 h
readout-type: EC50 (µM)

> print(dat)
                                    molecule  measurement.target  readout.type  comparison.operator  observed.value
 1    Cc1ccccc1C(=O)c1cc(C#N)c2ccc3ccccc3n12             SNU-398          EC50                    =             2.7
 2  COc1ccc(C(=O)c2cc(C#N)c3ccc4ccccc4n23)cc1             SNU-398          EC50                    =            0.18
 3  COc1ccc(C(O)c2cc(C#N)c3ccc4ccccc4n23)cc1 (stereo unspecified)             SNU-398          EC50                    =            0.14
 4  N#Cc1cc(C(=O)c2ccc(-n3cccn3)cc2)n2c1ccc1ccccc12             SNU-398          EC50                    =           0.057
 5     N#Cc1cc(C(=O)c2cccnc2)n2c1ccc1ccccc12             SNU-398          EC50                    =             2.6
 6  COc1cccc(C(=O)c2cc(C#N)c3ccc4ccccc4n23)c1             SNU-398          EC50                    =             1.6
 7  N#Cc1cc(C(O)c2ccc(N3CCCC3)cc2)n2c1ccc1ccccc12 (stereo unspecified)             SNU-398          EC50                    =             0.3
 8  N#Cc1cc(C(O)c2ccc(-n3cccn3)cc2)n2c1ccc1ccccc12 (stereo unspecified)             SNU-398          EC50                    =            0.35
 9  N#Cc1cc(C(=O)c2ccc([N+](=O)[O-])cc2)n2c1ccc1ccccc12             SNU-398          EC50                    >              10
10     N#Cc1cc(C(=O)c2ccccc2)n2c1ccc1ccccc12             SNU-398          EC50                    =             5.2
11  CCOC(=O)c1cc(C(=O)c2cccc(OC)c2)n2c1ccc1ccccc12             SNU-398          EC50                    >              10

* * *

Each entry below carries its reported GI50.
- Test system: T47D
- assay-info: Growth inhibition of human T47D cells
- Format: functional
readout-type: GI50

> print(dat)
                                     smiles  measurement.target  readout.type  observed.value
1     N#Cc1cc(C(=O)c2ccccc2)n2c1ccc1ccccc12                T47D          GI50           70 nM
2  N#Cc1cc(C(=O)c2ccc(N3CCCC3)cc2)n2c1ccc1ccccc12                T47D          GI50           75 nM
3  COc1ccc(C(=O)c2cc(C#N)c3ccc4ccccc4n23)cc1                T47D          GI50           71 nM
4    Cc1ccccc1C(=O)c1cc(C#N)c2ccc3ccccc3n12                T47D          GI50           87 nM
5  N#Cc1cc(C(=O)c2ccc(-n3cccn3)cc2)n2c1ccc1ccccc12                T47D          GI50           72 nM
6  N#Cc1cc(C(=O)c2ccc(N)cc2)n2c1ccc1ccccc12                T47D          GI50          470 nM
7  N#Cc1cc(C(=O)c2ccc(-n3ccnc3)cc2)n2c1ccc1ccccc12                T47D          GI50           41 nM
